- STUDY_TARGET: T1, Duck egg lysozyme (DEL), D65N + N103D double mutant of the DEL-II isoform (Anas platyrhynchos, DEL-II double mutant, strain)
- T1 construct: duck egg lysozyme, DEL-II isoform, D65N + N103D double mutant; differs from HEL3X at 25 amino acids; source: Pichia pastoris, secreted, purified from culture supernatant (ion exchange)
- T1 chain: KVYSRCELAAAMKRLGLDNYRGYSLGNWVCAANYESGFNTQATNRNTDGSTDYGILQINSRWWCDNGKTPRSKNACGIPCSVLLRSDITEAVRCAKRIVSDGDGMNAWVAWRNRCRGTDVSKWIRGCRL
- METHOD_DESCRIPTION: BLI; BLItz (ForteBio); biotinylated Hy10 Fab variant immobilised on streptavidin biosensors (rehydrated in PBS with 0.1% wt/vol BSA); soluble monomeric lysozyme antigen as analyte at a range of concentrations; global fit, 1:1 Fab-lysozyme interaction
- APPLIED_CONDITIONS: both partners purified
So I've got a bunch of binders here, and I need their pKd values.
Please report pKd as the negative decimal logarithm of the molar concentration, giving only the number.

Tell me the measured pKd of Hy10 Fab Y58F (Fab, V domains shown, as the heavy chain of Dm5 with the stated changes; as the light chain of Dm5; source: Expi293, transient (pCEP4), purified (Talon resin, gel filtration)) VH: DVQLQESGPSLVKPSQTLSLTCSVTGDSITSDYWSWIRKFPGNRLEYMGYVSYSGSTFYNPSLKSRISITRDTSKNQYYLDLNSVTTEDTATYYCANWDGDYWGQGTLVTVSA VL: DIVLTQSPATLSVTPGNSVSLSCRASQSIGNNLHWYQQKSHESPRLLIKYASQSISGIPSRFSGSGSGTDFTLSINSVETEDFGMYFCQQSNSWPYTFGGGTKLEIK , please. 7.97

Note, next up: Hy10 Fab S52T (Fab, V domains shown, as the heavy chain of Dm5 with the stated changes; as the light chain of Dm5; source: Expi293, transient (pCEP4), purified (Talon resin, gel filtration)) VH: DVQLQESGPSLVKPSQTLSLTCSVTGDSITSDYWSWIRKFPGNRLEYMGYVTYSGSTYYNPSLKSRISITRDTSKNQYYLDLNSVTTEDTATYYCANWDGDYWGQGTLVTVSA VL: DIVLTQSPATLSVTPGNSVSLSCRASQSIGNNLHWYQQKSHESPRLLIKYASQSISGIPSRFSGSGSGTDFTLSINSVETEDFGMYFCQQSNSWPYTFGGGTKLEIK 7.47

Now consider Hy10 Fab L4F (Fab, V domains shown, as the heavy chain of Dm5 with the stated changes; as the light chain of Dm5; source: Expi293, transient (pCEP4), purified (Talon resin, gel filtration)) VH: DVQFQESGPSLVKPSQTLSLTCSVTGDSITSDYWSWIRKFPGNRLEYMGYVSYSGSTYYNPSLKSRISITRDTSKNQYYLDLNSVTTEDTATYYCANWDGDYWGQGTLVTVSA VL: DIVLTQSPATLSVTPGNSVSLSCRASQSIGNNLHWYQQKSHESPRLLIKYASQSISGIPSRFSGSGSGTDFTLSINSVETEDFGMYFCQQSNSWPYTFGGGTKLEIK and answer again. 6.51

How about Hy10 Fab I29F (Fab, V domains shown, as the heavy chain of Dm5 with the stated changes; as the light chain of Dm5; source: Expi293, transient (pCEP4), purified (Talon resin, gel filtration)) VH: DVQLQESGPSLVKPSQTLSLTCSVTGDSFTSDYWSWIRKFPGNRLEYMGYVSYSGSTYYNPSLKSRISITRDTSKNQYYLDLNSVTTEDTATYYCANWDGDYWGQGTLVTVSA VL: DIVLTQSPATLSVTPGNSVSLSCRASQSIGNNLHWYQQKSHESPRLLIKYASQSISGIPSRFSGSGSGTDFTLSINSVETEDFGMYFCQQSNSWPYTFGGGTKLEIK ? 7.80

Please do the same for Hy10 Fab I29F/S52T (Fab, V domains shown, as the heavy chain of Dm5 with the stated changes; as the light chain of Dm5; source: Expi293, transient (pCEP4), purified (Talon resin, gel filtration)) VH: DVQLQESGPSLVKPSQTLSLTCSVTGDSFTSDYWSWIRKFPGNRLEYMGYVTYSGSTYYNPSLKSRISITRDTSKNQYYLDLNSVTTEDTATYYCANWDGDYWGQGTLVTVSA VL: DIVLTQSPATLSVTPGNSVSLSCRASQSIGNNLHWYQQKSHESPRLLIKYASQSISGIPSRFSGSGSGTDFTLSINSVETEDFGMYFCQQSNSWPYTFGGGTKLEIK as well. 8.24
